This collection of values is drawn from the supplement of paper PMC9112550.

tested on: Escherichia coli TOP10; assay: shrunken log2 fold change of peptide-encoding DNA abundance (4.5 h post-induction vs induction); higher = less antimicrobial activity (less host growth inhibition); details: time post-induction: 4.5 h; library: site-saturation at positions 5, 18, 19, 20
READOUT KIND: shrunken log2 fold change

Prompt: Query shrunken log2 fold change on Escherichia coli TOP10 for RRIRMRPPRLPRPRPRPFMLPRP
Response: -0.213

Prompt: Query shrunken log2 fold change on Escherichia coli TOP10 for RRIRPRPPRLPRPRPRPAIFPRP
Response: -0.0302

Prompt: Query shrunken log2 fold change on Escherichia coli TOP10 for RRIRCRPPRLPRPRPRPHDLPRP
Response: -0.46

Prompt: Query shrunken log2 fold change on Escherichia coli TOP10 for RRIRVRPPRLPRPRPRPADWPRP
Response: 0.379

Prompt: Query shrunken log2 fold change on Escherichia coli TOP10 for RRIRKRPPRLPRPRPRPMWSPRP
Response: 0.123

Prompt: Query shrunken log2 fold change on Escherichia coli TOP10 for RRIRLRPPRLPRPRPRPMSCPRP
Response: 0.0448

Prompt: Query shrunken log2 fold change on Escherichia coli TOP10 for RRIRPRPPRLPRPRPRPYYAPRP
Response: -0.709

Prompt: Query shrunken log2 fold change on Escherichia coli TOP10 for RRIRHRPPRLPRPRPRPYWDPRP
Response: -0.849

Prompt: Query shrunken log2 fold change on Escherichia coli TOP10 for RRIRIRPPRLPRPRPRPAVNPRP
Response: 0.131

Prompt: Query shrunken log2 fold change on Escherichia coli TOP10 for RRIRWRPPRLPRPRPRPQDSPRP
Response: 0.0627

Prompt: Query shrunken log2 fold change on Escherichia coli TOP10 for RRIRIRPPRLPRPRPRPWHGPRP
Response: -0.0996

Prompt: Query shrunken log2 fold change on Escherichia coli TOP10 for RRIRVRPPRLPRPRPRPRDKPRP
Response: -0.179

----------
Kindly state shrunken log2 fold change for each of the entries shown.
test system: Escherichia coli TOP10; test: shrunken log2 fold change of peptide-encoding DNA abundance (4.5 h post-induction vs induction); higher = less antimicrobial activity (less host growth inhibition); conditions: time post-induction: 4.5 h; library: site-saturation at positions 5, 18, 19, 20
API doc: respond with a numeric literal and nothing else, no unit.

Prompt: Query shrunken log2 fold change on Escherichia coli TOP10 for RRIRHRPPRLPRPRPRPGSEPRP
Response: 0.176

Prompt: Query shrunken log2 fold change on Escherichia coli TOP10 for RRIRERPPRLPRPRPRPMNWPRP
Response: 0.0377

Prompt: Query shrunken log2 fold change on Escherichia coli TOP10 for RRIRQRPPRLPRPRPRPYKTPRP
Response: -0.0141

Prompt: Query shrunken log2 fold change on Escherichia coli TOP10 for RRIRSRPPRLPRPRPRPLICPRP
Response: -0.221

Prompt: Query shrunken log2 fold change on Escherichia coli TOP10 for RRIRKRPPRLPRPRPRPESRPRP
Response: 0.625

Prompt: Query shrunken log2 fold change on Escherichia coli TOP10 for RRIRCRPPRLPRPRPRPYEHPRP
Response: -0.554

Prompt: Query shrunken log2 fold change on Escherichia coli TOP10 for RRIRPRPPRLPRPRPRPDMTPRP
Response: -0.293

Prompt: Query shrunken log2 fold change on Escherichia coli TOP10 for RRIRGRPPRLPRPRPRPVCAPRP
Response: 1.06

Prompt: Query shrunken log2 fold change on Escherichia coli TOP10 for RRIRFRPPRLPRPRPRPKTKPRP
Response: 0.0287

Prompt: Query shrunken log2 fold change on Escherichia coli TOP10 for RRIRFRPPRLPRPRPRPKGAPRP
Response: -0.0295

Prompt: Query shrunken log2 fold change on Escherichia coli TOP10 for RRIRIRPPRLPRPRPRPWFEPRP
Response: -0.161

Prompt: Query shrunken log2 fold change on Escherichia coli TOP10 for RRIRVRPPRLPRPRPRPQYQPRP
Response: -0.302

Prompt: Query shrunken log2 fold change on Escherichia coli TOP10 for RRIRFRPPRLPRPRPRPWYFPRP
Response: -0.303

----------
tested on: Escherichia coli TOP10; experiment: shrunken log2 fold change of peptide-encoding DNA abundance (4.5 h post-induction vs induction); higher = less antimicrobial activity (less host growth inhibition); conditions: time post-induction: 4.5 h; library: site-saturation at positions 5, 18, 19, 20;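 also: peptides expressed intracellularly from a pBAD plasmid library in pooled LB shake-flask culture, induced with 0.3% L-arabinose, DNA abundance read by NGS, three biological replicates, DESeq2 with apeglm shrinkage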
Please enter 1 (yes) where shrunken log2 fold change is greater than or equal to -0.04, and 0 (no) where it is lower.

Prompt: Does shrunken log2 fold change meet or surpass -0.04 for RRIRWRPPRLPRPRPRPVLGPRP ?
Response: 1 (yes)

Prompt: Does shrunken log2 fold change meet or surpass -0.04 for RRIRARPPRLPRPRPRPHHTPRP ?
Response: 0 (no)

Prompt: Does shrunken log2 fold change meet or surpass -0.04 for RRIRQRPPRLPRPRPRPFKQPRP ?
Response: 0 (no)

Prompt: Does shrunken log2 fold change meet or surpass -0.04 for RRIRKRPPRLPRPRPRPRGRPRP ?
Response: 1 (yes)

Prompt: Does shrunken log2 fold change meet or surpass -0.04 for RRIRIRPPRLPRPRPRPWAFPRP ?
Response: 1 (yes)

Prompt: Does shrunken log2 fold change meet or surpass -0.04 for RRIRRRPPRLPRPRPRPMGYPRP ?
Response: 1 (yes)

Prompt: Does shrunken log2 fold change meet or surpass -0.04 for RRIRCRPPRLPRPRPRPTHEPRP ?
Response: 1 (yes)

Prompt: Does shrunken log2 fold change meet or surpass -0.04 for RRIRLRPPRLPRPRPRPNGNPRP ?
Response: 0 (no)

Prompt: Does shrunken log2 fold change meet or surpass -0.04 for RRIRSRPPRLPRPRPRPAMNPRP ?
Response: 0 (no)

Prompt: Does shrunken log2 fold change meet or surpass -0.04 for RRIRWRPPRLPRPRPRPSFIPRP ?
Response: 0 (no)

Prompt: Does shrunken log2 fold change meet or surpass -0.04 for RRIRCRPPRLPRPRPRPNEIPRP ?
Response: 0 (no)

Prompt: Does shrunken log2 fold change meet or surpass -0.04 for RRIRQRPPRLPRPRPRPNNPPRP ?
Response: 0 (no)

Prompt: Does shrunken log2 fold change meet or surpass -0.04 for RRIRDRPPRLPRPRPRPPWIPRP ?
Response: 0 (no)

Prompt: Does shrunken log2 fold change meet or surpass -0.04 for RRIRPRPPRLPRPRPRPWIHPRP ?
Response: 0 (no)

Prompt: Does shrunken log2 fold change meet or surpass -0.04 for RRIRYRPPRLPRPRPRPSHCPRP ?
Response: 0 (no)

Prompt: Does shrunken log2 fold change meet or surpass -0.04 for RRIRDRPPRLPRPRPRPIQPPRP ?
Response: 1 (yes)

Prompt: Does shrunken log2 fold change meet or surpass -0.04 for RRIRQRPPRLPRPRPRPADRPRP ?
Response: 1 (yes)

Prompt: Does shrunken log2 fold change meet or surpass -0.04 for RRIRRRPPRLPRPRPRPDADPRP ?
Response: 1 (yes)

Prompt: Does shrunken log2 fold change meet or surpass -0.04 for RRIRGRPPRLPRPRPRPKSYPRP ?
Response: 1 (yes)

Prompt: Does shrunken log2 fold change meet or surpass -0.04 for RRIRFRPPRLPRPRPRPEDCPRP ?
Response: 1 (yes)

Prompt: Does shrunken log2 fold change meet or surpass -0.04 for RRIRLRPPRLPRPRPRPPMQPRP ?
Response: 1 (yes)

Prompt: Does shrunken log2 fold change meet or surpass -0.04 for RRIRIRPPRLPRPRPRPSEDPRP ?
Response: 0 (no)

Prompt: Does shrunken log2 fold change meet or surpass -0.04 for RRIRCRPPRLPRPRPRPNIAPRP ?
Response: 0 (no)

Prompt: Does shrunken log2 fold change meet or surpass -0.04 for RRIRIRPPRLPRPRPRPEEVPRP ?
Response: 1 (yes)

Prompt: Does shrunken log2 fold change meet or surpass -0.04 for RRIRCRPPRLPRPRPRPVEIPRP ?
Response: 0 (no)
